- System: KO-52 cells
- protocol.summary: Proliferation assay (spheroid growth, 8 days), KO-52 control cell line
- Type: cell-based, human
- experimental.context: Homo sapiens, […], read-out: spheroid assay_OneTime KO-52 IC50
assay.endpoint: IC50

Recorded IC50, per entry:
[[record]]
molecule = "CC(C)[C@@H](CCCN(C)CCC(=O)N(C)C)N1CC2(CCN(c3ncnnc3Oc3ccc(F)cc3C(=O)N(C(C)C)C(C)C)C2)C1 (single isomer, unassigned) [Compound 145]"
tested_target = "KO-52 cells"
assay_endpoint = "IC50"
test_result = "> 15 µM"

[[record]]
molecule = "CCN(C(=O)c1cc(F)ccc1Oc1nnccc1N1CCC2(C1)CN([C@H](CCCN(C)CCOC)C(C)C)C2)C(C)C (single isomer, unassigned) [Compound 83]"
tested_target = "KO-52 cells"
assay_endpoint = "IC50"
test_result = "6.24 µM"

[[record]]
molecule = "CCN(C(=O)c1cc(F)ccc1Oc1nncnc1N1CCC2(C1)CN([C@H](C[C@@H](CN(C)C)OC)C(C)C)C2)C(C)C (single isomer, unassigned) [Compound 315]"
tested_target = "KO-52 cells"
assay_endpoint = "IC50"
test_result = "> 15 µM"

[[record]]
molecule = "CCN(C(=O)c1cc(F)ccc1Oc1nncnc1N1CCC2(C1)CN([C@@H](CCCN(C)CCOC)C(C)C)C2)C(C)C [Compound 28]"
tested_target = "KO-52 cells"
assay_endpoint = "IC50"
test_result = "> 15 µM"

[[record]]
molecule = "CCN(C(=O)c1cc(F)ccc1Oc1nncnc1N1CCC2(C1)CN([C@@H](CCC(C)(C)N(C)C)C(C)C)C2)C(C)C (single isomer, unassigned) [Compound 33]"
tested_target = "KO-52 cells"
assay_endpoint = "IC50"
test_result = "> 15 µM"


// lookup IC50 | system=KO-52 cells | key= CCN(C(=O)c1cc(F)ccc1Oc1nncnc1N1CCC2(C1)CN([C@H](CCN(C)CCCO)C(C)C)C2)C(C)C (single isomer, unassigned) [Compound 274]
> 15 µM

====

- tested.target: menin/MLL (terbium chelate-labeled menin, FITC-MBM1 peptide) (Homo sapiens (Human))
- Sequence (O00255 other isoform, or with tags, fused parts or gaps): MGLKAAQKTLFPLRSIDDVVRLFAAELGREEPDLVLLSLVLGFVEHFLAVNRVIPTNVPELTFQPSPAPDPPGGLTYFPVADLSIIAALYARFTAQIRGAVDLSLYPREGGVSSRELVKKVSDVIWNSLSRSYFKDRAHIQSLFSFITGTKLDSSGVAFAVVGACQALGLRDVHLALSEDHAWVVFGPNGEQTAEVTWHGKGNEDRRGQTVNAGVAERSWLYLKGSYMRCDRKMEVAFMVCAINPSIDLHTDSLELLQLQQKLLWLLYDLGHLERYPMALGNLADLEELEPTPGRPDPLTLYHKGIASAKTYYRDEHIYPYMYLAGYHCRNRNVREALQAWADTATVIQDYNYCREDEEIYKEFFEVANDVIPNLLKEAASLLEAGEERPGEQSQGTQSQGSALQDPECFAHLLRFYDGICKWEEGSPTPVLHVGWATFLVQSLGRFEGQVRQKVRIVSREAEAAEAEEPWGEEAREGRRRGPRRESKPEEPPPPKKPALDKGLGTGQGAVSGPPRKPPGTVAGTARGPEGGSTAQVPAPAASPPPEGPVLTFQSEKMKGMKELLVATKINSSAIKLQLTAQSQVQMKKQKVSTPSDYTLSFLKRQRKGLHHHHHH
- protocol.summary: Menin/MLL homogenous time-resolved fluorescence (HTRF) assay;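 also: IC50 from percent inhibition of HTRF signal, normalized between wells without competitor and wells with a saturating competitor that displaces FITC-MBM1 from His-tagged menin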
- Format: binding
- experimental.context: HTRF-30 min incubation IC50, 30 min incubation
Structures can show the parent of a compound that is named as a salt.
assay.endpoint: IC50 (nM)
State just the number; it will be interpreted in nM.

Recorded IC50, per entry:
[[record]]
compound = "CCN(C(=O)c1cc(F)ccc1Oc1nncnc1N1CCC2(C1)CN([C@H](CCCN[C@H](CO)COC)C(C)C)C2)C(C)C"
test_result = 0.096

[[record]]
compound = "CCN(C(=O)c1cc(F)ccc1Oc1nncnc1N1CCC2(C1)CN([C@H](CCCN(C)C[C@H](COC)OC)C(C)C)C2)C(C)C (single isomer, unassigned)"
test_result = 0.13

[[record]]
compound = "CCN(CC)C[C@@H](O)C[C@@H](C(C)C)N1CC2(CCN(c3ncnnc3Oc3ccc(F)cc3C(=O)N(CC)C(C)C)C2)C1 (single isomer, unassigned)"
test_result = 5.49

[[record]]
compound = "CCN(C(=O)c1cc(F)ccc1Oc1nnc(OC)nc1N1CCC2(C1)CN([C@H](CCCN(C)C)C(C)C)C2)C(C)C [Compound 410, formate]"
test_result = 0.12

[[record]]
compound = "CCN(C(=O)c1cc(F)ccc1Oc1nncnc1N1CCC2(C1)CN([C@H](CCC(C)N(C)CCOC)C(C)C)C2)C(C)C (stereo partly drawn) [Compound 300, fumarate]"
test_result = 0.066

[[record]]
compound = "COCCN(C)CCC[C@@H](C(C)C)N1CC2(CCN(c3ccnnc3Oc3ccc(F)cc3C(=O)N(C(C)C)C(C)C)C2)C1 (single isomer, unassigned)"
test_result = 3.79

[[record]]
compound = "CCN(C(=O)c1cc(F)ccc1Oc1nncnc1N1CCC2(C1)CN([C@H](CCCN(C)CCN(C)C(C)=O)C(C)C)C2)C(C)C [Compound 148, fumarate]"
test_result = 0.35

[[record]]
compound = "CCN(C(=O)c1cc(F)ccc1Oc1nncnc1N1CCC2(C1)CN([C@H](CCCN(C)C(CO)CO)C(C)C)C2)C(C)C [Compound 256, fumarate]"
test_result = 0.15


Value lookup for IC50; key = CCN(C(=O)c1cc(F)ccc1Oc1nncnc1N1CCC2(C1)CN([C@H](CCCNCC(F)(F)F)C(C)C)C2)C(C)C
0.61

Value lookup for IC50; key = CC(C)[C@@H](CCCN(C)C[C@@H](C)C(N)=O)N1CC2(CCN(c3ncnnc3Oc3ccc(F)cc3C(=O)N(C(C)C)C(C)C)C2)C1 (single isomer, unassigned)
0.3

Value lookup for IC50; key = CCN(C(=O)c1cc(F)ccc1Oc1nncnc1N1CCC2(C1)CN([C@H](CCCN[C@@H](CO)COC)C(C)C)C2)C(C)C
0.089

Value lookup for IC50; key = COCCN(C)CCC[C@H](C(C)C)N1CC2(CCN(c3ncnnc3Oc3ccc(F)cc3C(=O)N(C(C)C)C(C)C)C2)C1 (single isomer, unassigned)
0.12
